# credit: patent US20240109881A1

- target_desc: IRAK4 (Homo sapiens, UniProt Q9NWZ3)
- Construct: endogenous in cells; host or cells: THP-1 cells
- Sequence (Q9NWZ3 whole entry): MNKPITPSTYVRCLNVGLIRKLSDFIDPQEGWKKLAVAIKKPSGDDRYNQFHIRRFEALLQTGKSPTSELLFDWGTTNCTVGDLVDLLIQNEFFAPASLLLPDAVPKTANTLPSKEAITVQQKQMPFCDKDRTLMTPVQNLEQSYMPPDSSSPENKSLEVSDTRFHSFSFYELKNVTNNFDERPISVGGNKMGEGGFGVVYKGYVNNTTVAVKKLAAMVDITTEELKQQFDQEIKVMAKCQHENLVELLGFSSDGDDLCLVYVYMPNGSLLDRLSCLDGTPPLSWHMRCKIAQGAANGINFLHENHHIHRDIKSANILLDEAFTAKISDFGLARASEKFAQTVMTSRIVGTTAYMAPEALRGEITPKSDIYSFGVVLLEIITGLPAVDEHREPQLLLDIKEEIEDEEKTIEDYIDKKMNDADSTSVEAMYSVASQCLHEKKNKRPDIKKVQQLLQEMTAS
- protocol: LVL THP1 HTRF (THP1 Homogeneous Time Resolved Fluorescence)
- Format: cell-based
- study_conditions: THP1 cells, 18 h incubation with compound
measure: LVL THP1 HTRF YMIN (%)
Numbers only here, please. The scale is %.

Example results:
{"columns": ["compound", "target_desc", "measure", "unit_name", "endpoint_result"],
 "data": [
  ["C[C@H](C#N)Nc1cc(-n2ncc3cc(C#N)cnc32)ncc1C(=O)N[C@H]1CC[C@H](CCN2CC3(CC(c4ccc(N5CCC(=O)NC5=O)cc4)C3)C2)CC1", "IRAK4 (Homo sapiens, UniProt Q9NWZ3)", "LVL THP1 HTRF YMIN", "%", 37.6],
  ["C[C@H](C#N)Nc1cc(-n2ncc3cc(C#N)c(N)nc32)ncc1C(=O)N[C@H]1CC[C@H](CCN2CCN(c3ccc(C4CCC(=O)NC4=O)cc3)[C@@H](C)C2)CC1 (some centres unmarked)", "IRAK4 (Homo sapiens, UniProt Q9NWZ3)", "LVL THP1 HTRF YMIN", "%", 0.8],
  ["C[C@H](C#N)Nc1cc(-n2ncc3cc(C#N)cnc32)ncc1C(=O)N[C@H]1CC[C@H](CCN2CCC(c3ccn(C4CCC(=O)NC4=O)c(=O)c3)CC2)CC1 (some centres unmarked)", "IRAK4 (Homo sapiens, UniProt Q9NWZ3)", "LVL THP1 HTRF YMIN", "%", 0.8],
  ["C[C@H](C#N)Nc1cc(-n2ncc3cc(C#N)cnc32)ncc1-n1cc(C2CCC(CCN3C[C@@H](C)N(c4ccc(C5CCC(=O)NC5=O)cc4)C[C@@H]3C)CC2)nn1 (some centres unmarked)", "IRAK4 (Homo sapiens, UniProt Q9NWZ3)", "LVL THP1 HTRF YMIN", "%", 1.4]
]}

[Q] So what's the measured LVL THP1 HTRF YMIN for this one? C[C@H](C#N)Nc1cc(-n2ncc3cc(C#N)cnc32)ncc1-n1cc([C@H]2CC[C@H](CCN3CC[C@H]4[C@@H]3CCN4c3ccc([C@@]4(C)CCC(=O)NC4=O)nc3)CC2)nn1 (single isomer, unassigned) [P-418]
[A] 1.8

====

Reported values of pEC50 for individual entries
- target_desc: IRAK4 (Homo sapiens)
- Construct: endogenous in cells; host or cells: THP-1 cells
- protocol: ALE THP1 HTRF (Advanced Lipoxidation End Product THP1 Homogeneous Time Resolved Fluorescence)
- Assay type: cell-based
- study_conditions: THP1 cells
In simple prose, pEC50 is minus the logarithm base ten of a concentration in moles per litre.

{"columns": ["compound", "pEC50"],
 "data": [
  ["O=C1CCC(N2C(=O)c3ccc(N4CCN(C(=O)C5CCC(NC(=O)c6cnc(Nc7ccn8nccc8n7)cc6NC6CCCC6)CC5)CC4)cc3C2=O)C(=O)N1 (stereo not drawn)", 7.43],
  ["C[C@H](C#N)Nc1cc(-n2ncc3cc(C#N)c(N)nc32)ncc1C(=O)N[C@H]1CC[C@H](CCN2CCN(c3ccc(C4CCC(=O)NC4=O)cc3)C(C(F)(F)F)C2)CC1 (stereo partly drawn) [P-181]", 6.77]
]}

Attention now shifts to the item below.
[Q] So what's the measured pEC50 for this one? N#Cc1cc2cnn(-c3cc(NC4CC4)c(-n4cc([C@H]5CC[C@H](CCN6CCN(c7ccc(C8CCC(=O)NC8=O)cc7)CC6)CC5)nn4)cn3)c2nc1N (stereo partly drawn)
[A] 8.52
